FYI, the data here is from the kinase profiling compilation of Christmann-Franck et al. (2016).

Here, each record is paired with measured kinase still bound, per cent of control data.
- system: SRPK2 (human)
- experimental-details: KINOMEscan competition binding
- assay-conditions: compound 10.0 µM
Output spec: scalar in %, unitless text.

- molecule: "CN1C(=O)c2ccccc2N(C)c2nc(Nc3ccc(N4CCC(O)CC4)cc3)ncc21"
  scale-unit: "%"
  kinase still bound, per cent of control: 100
- molecule: "COc1cc(N2CCN(C)CC2)ccc1Nc1ncc2c(n1)Nc1ccccc1NC2=O"
  scale-unit: "%"
  kinase still bound, per cent of control: 93

State the recorded kinase still bound, per cent of control for this entry: CN1CCN(c2ccc(C(=O)Nc3ncc4c(n3)N(C)c3ccccc3C(=O)N4C)cc2)CC1
100

* * *

- system: TGFBR1 (human)
- experimental-details: KINOMEscan competition binding
- assay-conditions: compound 10.0 µM
Here, each record is paired with measured kinase still bound, per cent of control data.
Output spec: scalar in %, unitless text.

- molecule: "CS(=O)(=O)Nc1ccc(-c2cncc(/C=C3\\SC(=N)NC3=O)c2)cc1"
  scale-unit: "%"
  kinase still bound, per cent of control: 16
- molecule: "CS(=O)(=O)Nc1ccc(-c2cc(/C=C3\\SC(=N)NC3=O)c[nH]c2=O)cc1"
  scale-unit: "%"
  kinase still bound, per cent of control: 24
- molecule: "O=C1NC(=O)/C(=C/c2c[nH]c(=O)c(-c3ccc(N4CCNCC4)nc3)c2)S1"
  scale-unit: "%"
  kinase still bound, per cent of control: 48
- molecule: "CN1C(=O)c2ccccc2N(C)c2nc(NS(=O)(=O)c3ccc(N)cc3)ncc21"
  scale-unit: "%"
  kinase still bound, per cent of control: 100
- molecule: "COc1cc(N2CCN(C)CC2)ccc1Nc1ncc2c(n1)Nc1ccccc1NC2=O"
  scale-unit: "%"
  kinase still bound, per cent of control: 79

# next molecule below
State the recorded kinase still bound, per cent of control for this entry: COc1cc(N2CCN(C)CC2)ccc1Nc1ncc2c(n1)N(C)c1ccccc1N(C)C2=O
97

* * *

- system: RPS6KA3 KD1 (human) (UniProt P51812)
- Sequence (P51812 whole entry, looked up): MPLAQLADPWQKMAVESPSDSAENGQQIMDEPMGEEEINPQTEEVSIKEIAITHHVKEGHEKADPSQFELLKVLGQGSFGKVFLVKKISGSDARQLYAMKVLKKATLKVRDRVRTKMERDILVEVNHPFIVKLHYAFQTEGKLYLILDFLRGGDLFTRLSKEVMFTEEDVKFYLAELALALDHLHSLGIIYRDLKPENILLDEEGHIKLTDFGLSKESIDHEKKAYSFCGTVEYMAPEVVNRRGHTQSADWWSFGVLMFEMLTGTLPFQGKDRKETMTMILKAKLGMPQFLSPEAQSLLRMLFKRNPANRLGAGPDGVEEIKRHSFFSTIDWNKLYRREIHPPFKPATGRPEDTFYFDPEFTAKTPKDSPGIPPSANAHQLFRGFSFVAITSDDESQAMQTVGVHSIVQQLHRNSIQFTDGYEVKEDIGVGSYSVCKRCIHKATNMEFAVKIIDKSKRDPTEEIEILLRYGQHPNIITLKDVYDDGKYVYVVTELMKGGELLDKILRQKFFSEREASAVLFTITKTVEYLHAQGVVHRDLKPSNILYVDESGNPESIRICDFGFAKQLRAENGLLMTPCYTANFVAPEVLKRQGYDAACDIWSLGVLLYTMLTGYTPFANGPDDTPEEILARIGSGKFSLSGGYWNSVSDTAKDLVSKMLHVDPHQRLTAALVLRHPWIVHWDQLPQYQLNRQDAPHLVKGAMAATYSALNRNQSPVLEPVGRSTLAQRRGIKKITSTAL
- experimental-details: KINOMEscan competition binding
- assay-conditions: compound 10.0 µM
parameter-measured: kinase still bound, per cent of control (%)
Output spec: scalar in %, unitless text.

Below, 3 compounds whose answers are already recorded.
- molecule: "CN1C(=O)c2ccccc2N(C)c2nc(NS(=O)(=O)c3ccc(N)cc3)ncc21"
  parameter-measured: "kinase still bound, per cent of control"
  number: 100
- molecule: "COc1cc(N2CCN(C)CC2)ccc1Nc1ncc2c(n1)N(C)c1ccccc1N(C)C2=O"
  parameter-measured: "kinase still bound, per cent of control"
  number: 92
- molecule: "COc1cc(N2CCN(C)CC2)ccc1Nc1ncc2c(n1)Nc1ccccc1NC2=O"
  parameter-measured: "kinase still bound, per cent of control"
  number: 72

State the recorded kinase still bound, per cent of control for this entry: COc1cc(N2CCC(O)CC2)ccc1Nc1ncc2c(n1)N1CCc3cccc(c31)C(=O)N2C
55

State the recorded kinase still bound, per cent of control for this entry: CN1CCN(c2ccc(C(=O)Nc3ncc4c(n3)N(C)c3ccccc3C(=O)N4C)cc2)CC1
100

State the recorded kinase still bound, per cent of control for this entry: O=C1NC(=O)/C(=C/c2c[nH]c(=O)c(-c3ccc(N4CCNCC4)nc3)c2)S1
42

State the recorded kinase still bound, per cent of control for this entry: CN1C(=O)c2ccccc2N(C)c2nc(Nc3ccc(N4CCC(O)CC4)cc3)ncc21
85

State the recorded kinase still bound, per cent of control for this entry: COc1cc(N2CCN(C)CC2)ccc1Nc1ncc2c(n1)N(C)c1sccc1C(=O)N2C
99
